Experiment: Clearance in CD1 mouse at 1 mg/kg, iv as bolus dose measured up to 24 hrs by LC-MS/MS analysis
Format: ADME, organism-based
Details: in vivo
experimental endpoint: clearance

- cpd smiles: "O=C1Cc2cc(C(=O)N[C@H]3C[C@H]4CC[C@@H](C3)N4S(=O)(=O)CC3CCN(CCCC(F)(F)F)CC3)c(Cl)cc2N1"
  measured: "27 mL/min/kg"

----------
Test: Terminal half life in CD1 mouse at 50 mg/kg, administered through oral gavage by LC-MS/MS analysis
Assay type: ADME, organism-based
Settings: in vivo, read-out: beta t1/2 (converted)

- cpd smiles: "O=C1Cc2cc(C(=O)N[C@H]3C[C@H]4CC[C@@H](C3)N4S(=O)(=O)CC3CCN(CCCC(F)(F)F)CC3)c(Cl)cc2N1"
  half-life: "2.2 h"

----------
Assay: Cmax in CD1 mouse at 50 mg/kg, administered through oral gavage measured up to 24 hrs by LC-MS/MS analysis
Format: ADME, organism-based
Design: dose 50 mg/kg, route oral
Conditions: in vivo

- cpd smiles: "O=C1Cc2cc(C(=O)N[C@H]3C[C@H]4CC[C@@H](C3)N4S(=O)(=O)CC3CCN(CCCC(F)(F)F)CC3)c(Cl)cc2N1"
  Cmax, ng/mL: 4690

----------
Biological target: Histone-lysine N-methyltransferase SMYD3 (Homo sapiens, UniProt Q9H7B4)
Assay: Inhibition of full length N-terminal His-tagged SMYD3 (1 to 428 residues) (unknown origin) expressed in Escherichia coli using N-terminal GST-tagged MEKK2 as substrate preincubated for 30 mins followed by substrate addition by scintillation proximity assay in presence of [3H]SAM
# IC50 annotations
experimental endpoint: IC50 (nM)

- cpd smiles: "NC1CCN(S(=O)(=O)N2[C@@H]3CC[C@H]2C[C@@H](NC(=O)c2ccc4c(c2)CC(=O)N4)C3)CC1"
  experimental endpoint: "IC50"
  measured: 1
- cpd smiles: "CN1CCC(CS(=O)(=O)N2[C@@H]3CC[C@H]2C[C@@H](NC(=O)c2ccc4c(c2)CC(=O)N4)C3)CC1"
  experimental endpoint: "IC50"
  measured: 1
- cpd smiles: "NC1CCN(S(=O)(=O)N2[C@@H]3CC[C@H]2C[C@@H](NC(=O)c2cc4c(cc2F)NC(=O)C4)C3)CC1"
  experimental endpoint: "IC50"
  measured: 5
- cpd smiles: "O=C1Cc2cc(C(=O)N[C@H]3C[C@H]4CC[C@@H](C3)N4S(=O)(=O)C[C@H]3CCCNC3)c(Cl)cc2N1"
  experimental endpoint: "IC50"
  measured: 4
- cpd smiles: "O=C1Cc2cc(C(=O)N[C@H]3C[C@H]4CC[C@@H](C3)N4S(=O)(=O)CC3CCNCC3)c(Cl)cc2N1"
  experimental endpoint: "IC50"
  measured: 4

----------
Assay: AUC (0 to infinity) in CD1 mouse at 5 mg/kg, administered through oral gavage measured up to 24 hrs by LC-MS/MS analysis
Type: ADME, organism-based
Parameters: dose 5 mg/kg, time infinity, route oral
Settings: in vivo
experimental endpoint: AUC(0-inf) (ng·h/mL)

- cpd smiles: "O=C1Cc2cc(C(=O)N[C@H]3C[C@H]4CC[C@@H](C3)N4S(=O)(=O)CC3CCN(CCCC(F)(F)F)CC3)c(Cl)cc2N1"
  measured: 1480

----------
# IC50 annotations
Target: Histone-lysine N-methyltransferase SMYD3 (Homo sapiens, UniProt Q9H7B4)
Sequence (Q9H7B4 whole entry): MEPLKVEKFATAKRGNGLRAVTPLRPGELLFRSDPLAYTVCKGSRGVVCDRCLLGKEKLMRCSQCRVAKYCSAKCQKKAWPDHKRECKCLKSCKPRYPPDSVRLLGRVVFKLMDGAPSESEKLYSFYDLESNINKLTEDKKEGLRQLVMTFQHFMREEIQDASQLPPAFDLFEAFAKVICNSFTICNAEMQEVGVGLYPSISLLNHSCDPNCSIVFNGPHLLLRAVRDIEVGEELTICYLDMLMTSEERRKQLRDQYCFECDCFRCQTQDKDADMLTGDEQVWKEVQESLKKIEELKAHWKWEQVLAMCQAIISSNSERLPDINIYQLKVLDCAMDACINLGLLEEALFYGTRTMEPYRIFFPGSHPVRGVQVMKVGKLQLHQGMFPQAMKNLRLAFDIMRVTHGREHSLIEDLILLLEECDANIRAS
Test: Inhibition of human SMYD3 expressed in HEK293T/17 cells using FLAG-tagged MEKK2 as substrate incubated for 30 mins in low air flow area followed by incubation for 24 hrs at 37 degC by Western blot analysis
Type: cell-based, HEK-293T
experimental endpoint: IC50 (nM)

- cpd smiles: "NCCCS(=O)(=O)N1CCC(NC(=O)c2ccc3c(c2)CC(=O)N3)CC1"
  experimental endpoint: "IC50"
  readout units: "nM"
  comparator: ">"
  measured: 10000
- cpd smiles: "NC1CCN(S(=O)(=O)N2[C@@H]3CC[C@H]2C[C@@H](NC(=O)c2cc4c(cc2Cl)NC(=O)C4)C3)CC1"
  experimental endpoint: "IC50"
  readout units: "nM"
  comparator: "="
  measured: 1100
- cpd smiles: "N[C@H]1CC[C@H](S(=O)(=O)N2[C@@H]3CC[C@H]2C[C@@H](NC(=O)c2ccc4c(c2)CC(=O)N4)C3)CC1"
  experimental endpoint: "IC50"
  readout units: "nM"
  comparator: "="
  measured: 2200
- cpd smiles: "O=C1Cc2cc(C(=O)NC3CCN(S(=O)(=O)CC4CCNCC4)CC3)ccc2N1"
  experimental endpoint: "IC50"
  readout units: "nM"
  comparator: ">"
  measured: 10000
- cpd smiles: "Cc1cc2c(cc1C(=O)N[C@H]1C[C@H]3CC[C@@H](C1)N3S(=O)(=O)N1CCC(N)CC1)CC(=O)N2"
  experimental endpoint: "IC50"
  readout units: "nM"
  comparator: "="
  measured: 410
- cpd smiles: "O=C1Cc2cc(C(=O)N[C@H]3C[C@H]4CC[C@@H](C3)N4S(=O)(=O)C[C@H]3CCCNC3)c(Cl)cc2N1"
  experimental endpoint: "IC50"
  readout units: "nM"
  comparator: "="
  measured: 1300
- cpd smiles: "O=C1Cc2cc(C(=O)N[C@H]3C[C@H]4CC[C@@H](C3)N4S(=O)(=O)CC3CCNCC3)c(Cl)cc2N1"
  experimental endpoint: "IC50"
  readout units: "nM"
  comparator: "="
  measured: 3200

Data provenance is ChEMBL document CHEMBL3797202.
